Values from PubChem BioAssay AID624456

system: compound stability in 1x PBS, percent remaining; experiment: compound stability in phosphate-buffered saline, ADME assay, biochemical, 1x PBS, with and without 50% ACN, set 2 (AID 624456);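 also: percent left after two days of incubation at room temperature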
endpointName: stability (%)
One number for each entry, in %.

Previously resolved entries follow.
COc1cccc(-c2nc(-c3ccc(NC(=O)Cc4ccccc4OC)cc3)no2)c1 : 81.5
O=C(CSc1cccc2cccnc12)N1CCCC1 : 100

Batch of 2 molecules: report stability for each.
1. Cc1ccc(S(=O)(=O)n2c(N)nc3ccccc32)cc1
2. CCCN(CCC)CCNC(=O)C1CCN(Cc2nc(-c3ccc(Cl)cc3)oc2C)CC1

[97.8, 99.4]

Hey, quick one: what's stability for each of these?
1. O=C(O)c1ccc(N2C(=O)/C(=C/c3ccc(-c4ccc([N+](=O)[O-])cc4)o3)C=C2c2ccccc2)cc1
2. Cc1ccc(N2CCN(S(=O)(=O)N3CCCCC3)CC2)c(C)c1
3. c1ccc(-c2nnc(N3CCOCC3)nc2-c2ccccc2)cc1
4. c1ccc(CC2CCN(c3ncnc4sccc34)CC2)cc1

14.5
15.1
57.4
6.42

* * *

test system: compound stability in 1x PBS, percent remaining; assay: compound stability in phosphate-buffered saline, ADME assay, biochemical, 1x PBS, with and without 50% ACN, set 2 (AID 624456);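 also: percent left after two days of incubation at room temperature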
endpointName: stability (%)
Give bare numbers, in %.

Answered examples (5):
Cc1ccc(S(=O)(=O)NCc2ccc(C(=O)NCCN(Cc3ccccc3)C(C)C)cc2)cc1 : 84.8
c1ccc2c(Nc3nnc(-c4ccncc4)s3)cccc2c1 : 84.2
Cc1ccc(C(=O)n2c3ccccc3c3ccccc32)cc1 : 77.2
Cc1ccnc(NC(=O)CCCOc2cc(=O)n(C)c3ccccc23)c1 : 93.8
CC(C)C(=O)NC(c1ccco1)c1ccc2cccnc2c1O (configuration not stated) : 92.9

For every listed record, write down its stability.
1. COc1ccc(C2CC(c3ccccc3)=NN2c2ccc(S(N)(=O)=O)cc2)cc1 (configuration not stated)
2. Cc1cc(C(=O)CN2C(=O)CCC2=O)c(C)n1Cc1ccccc1
3. COc1ccc(CNCc2cccc3ccccc23)cc1

[58.2, 73, 50.6]

Return reported stability values for all items listed beneath this line.
1. Cn1nnnc1Sc1ncnc2scc(-c3ccccc3)c12
2. C/C=C/Cn1c(SCCCc2ccccc2)nc2c1c(=O)[nH]c(=O)n2C
3. COc1ccc(N(C(=O)CCl)C(C(=O)NCCc2ccccc2)c2cccs2)cc1Cl (configuration not stated)
4. O=C(O)CCC(NS(=O)(=O)c1ccc(-c2ccccc2)cc1)C(=O)O (configuration not stated)
5. O=C(CCNS(=O)(=O)c1cccc2nsnc12)N1CCN(c2ccccn2)CC1

85
73.4
71.8
100
91.6

* * *

tested on: compound stability in 1x PBS, percent remaining; assay: compound stability in phosphate-buffered saline, ADME assay, biochemical, 1x PBS, with and without 50% ACN, set 2 (AID 624456); settings: measured here: stability in PBS with 50% ACN;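 also: percent left after two days of incubation at room temperature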
Give stability for every item shown.
Answers are plain numbers, in %.

Brc1ccc2c(c1)CN1CCCC1=N2 : 93.4
O=C1CCCC2=C1C1(CCCC1)N=C(Nc1nc3ccccc3o1)N2 : 90.2
CCCC(=O)Nc1cccc(NC(=O)c2ccccc2Br)c1 : 86.7

Okay, here is my list. What is stability for each of these?
1. Cc1ccc(-n2c(N)c(C#N)c(-c3ccccc3)c(C#N)c2=O)cc1
2. COc1ccc(CNCc2cccc3ccccc23)cc1
3. O=c1[nH]c(SCc2ccc(Cl)cc2)nc2c1CCC2

1: 98.2; 2: 100; 3: 100

* * *

tested on: compound stability in 1x PBS, percent remaining; assay: compound stability in phosphate-buffered saline, ADME assay, biochemical, 1x PBS, with and without 50% ACN, set 2 (AID 624456); settings: measured here: stability in PBS with 50% ACN;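 also: percent left after two days of incubation at room temperature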
endpointName: stability (%)
One number for each entry, in %.

C=CCn1c(SCC(=O)c2ccc(O)c(O)c2)nnc1-c1ccccc1OC : 100

Could you tell me stability for each of these compounds? They are listed below.
1. COc1ccc(OC)c(-c2nnc3n2N=C(c2ccc(OC)c(OC)c2)CS3)c1
2. Cc1cc(-c2nnc3n2CCCCC3)c(C)n1-c1ccccc1
3. COc1ccc(CSc2nc(C)cc(=O)[nH]2)cc1
4. CCOc1ccc(-c2nc(-c3ccncc3)no2)cc1OCC
5. O=[N+]([O-])c1ccc(CN2CCOCCOCCN(Cc3ccc([N+](=O)[O-])cc3)CCOCC2)cc1
6. O=C(CSc1cccc2cccnc12)N1CCCC1
7. O=c1[nH]c2c(s1)C(c1cccnc1)C1C3CCC(C3)C1S2 (configuration not stated)

[99.6, 100, 99.8, 100, 100, 100, 66.5]

Return reported stability values for all items listed beneath this line.
1. C/C=C/Cn1c(SCCCc2ccccc2)nc2c1c(=O)[nH]c(=O)n2C
2. Cn1nnnc1Sc1ncnc2scc(-c3ccccc3)c12
3. Cc1cc(C)nc(-n2nc(C)c(Sc3ccc(F)cc3)c2N)n1
4. CSc1nc(-c2ccc(C)cc2)nc(C(Cl)Cl)n1
5. CN(C)c1oc(-c2ccc(OCc3ccc(Cl)cc3)cc2)nc1C#N
6. Cc1ccnc(NC(=O)CCCOc2cc(=O)n(C)c3ccccc23)c1

1. 100
2. 95.1
3. 100
4. 96.5
5. 100
6. 100

Go through the items and report each one's stability.
1. CC[C@H]1CN2CCc3cc(OC)c(OC)cc3[C@@H]2C[C@@H]1C[C@H]1NCCc2cc(OC)c(OC)cc21
2. O=C(COC(=O)C12CC3CC(CC(C3)C1)C2)NCc1ccco1
3. O=S(=O)(NC1CCCCC1N1CCOCC1)c1ccc(Cl)cc1 (configuration not stated)

90
88.2
89.4

* * *

Could you please report measured stability for the items listed next?
system: compound stability in 1x PBS, percent remaining; test: compound stability in phosphate-buffered saline, ADME assay, biochemical, 1x PBS, with and without 50% ACN, set 2 (AID 624456); settings: measured here: stability in PBS with 50% ACN;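 also: percent left after two days of incubation at room temperature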

These recorded examples may help you get a feel for the data.
COc1ccc(C2c3c(ncn(CCN4CCOCC4)c3=N)Oc3ccc4ccccc4c32)cc1OC (stereo not drawn) : 85.6%
COc1cccc(-c2nc(-c3ccc(NC(=O)Cc4ccccc4OC)cc3)no2)c1 : 90.4%

Query molecule follows.
Consider CCOC(=O)C(C)Oc1cccc2c(=O)n(CC(=O)Nc3ccc4c(c3)OCCO4)ccc12 (stereo not drawn) . Its measured stability is 94.6%

* * *

system: compound stability in 1x PBS, percent remaining; test: compound stability in phosphate-buffered saline, ADME assay, biochemical, 1x PBS, with and without 50% ACN, set 2 (AID 624456);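 also: percent left after two days of incubation at room temperature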
Task for the reader: assign each of the following compounds its reported stability.
Numbers only, in %.

Worked cases, stability given:
O=C(COc1ccccc1Br)NCCc1nc2ccccc2[nH]1 : 92.1
Cc1ccc(-n2c(N)c(C#N)c(-c3ccccc3)c(C#N)c2=O)cc1 : 81.4

Go through the list and state stability for each entry.
1. C=CCn1c(SCC(=O)c2ccc(O)c(O)c2)nnc1-c1ccccc1OC
2. Cc1cc2c(s1)c1cnn(Cc3ccccc3F)c(=O)c1n2C

82.6
20.4

Working through the 7 compounds below one at a time, give stability for each.
1. O=C1NCCCc2c1oc1ccc(O)cc21
2. Cc1ccc(NS(=O)(=O)c2ccc3c(c2)CCC(=O)N3)cc1C
3. COc1ccccc1N(/N=C1\Sc2ccccc2C1=O)C(C)=O
4. Cc1ccc(NC(=O)CCC(=O)N/N=C/c2ccc([N+](=O)[O-])o2)cc1C
5. COc1ccc(S(=O)(=O)N2CCN(S(=O)(=O)c3ccc4c(c3)OCCO4)CC2)cc1
6. CN(C)c1nc(N)nc(CSc2nnnn2-c2cccc3ccccc23)n1
7. Cn1cnc([N+](=O)[O-])c1Sc1ncnc2nc[nH]c12

[100, 68.5, 81.6, 51.3, 72.3, 75.8, 31.9]

Parameter requested: stability. Apply to each item below.
1. Cc1ccc(C)c(NS(=O)(=O)c2cc(C(=O)Nc3ccccc3-c3ccccc3)ccc2Cl)c1
2. N#Cc1ccccc1CSc1nc2ncc(Br)cc2[nH]1
3. Cc1cc(C)nc(-n2nc(C)c(Sc3ccc(F)cc3)c2N)n1

34.6
60.5
56

* * *

Please go through the items and note down their stability.
system: compound stability in 1x PBS, percent remaining; assay: compound stability in phosphate-buffered saline, ADME assay, biochemical, 1x PBS, with and without 50% ACN, set 2 (AID 624456);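 also: percent left after two days of incubation at room temperature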

CCCc1cc(C(=O)N(C2CCCCC2)C2CCCCC2)no1 : 6.53%
NC(=O)C1CCN(c2nc(-c3ccc(Br)cc3)cs2)CC1 : 70.8%
CCCn1ncc(CN2CCCC(C(=O)c3cccc(OC(C)C)c3)C2)c1C (configuration not stated) : 100%
O=C(O)c1ccccc1OCc1ccccc1Br : 98.8%
O=c1[nH]c2c(s1)C(c1cccnc1)C1C3CCC(C3)C1S2 (configuration not stated) : 55%

// each molecule listed below needs its stability
1. Cc1cc(-c2nnc3n2CCCCC3)c(C)n1-c1ccccc1
2. CCOC(=O)C(C)Oc1cccc2c(=O)n(CC(=O)Nc3ccc4c(c3)OCCO4)ccc12 (configuration not stated)

["100%", "56.1%"]
